Value source: PubChem BioAssay (NCI)

# System: DMS 273 small cell lung
# test-method-notes: NCI tumour cell line growth inhibition, 48 h
measure-name: TGI

Some solved entries appear below for comparison.
C[C@]1(CO)CCC[C@@]2(C)C1CC[C@H]1CC3C[C@]12CC[C@]3(C)O (stereo partly specified): > 100 µM
O=C(CC1(O)C(=O)Nc2c(Cl)cc(Cl)cc21)c1cccc2ccccc12 (stereo unspecified): 27.5 µM
COc1cc(OC)c(C2CC=Cc3c(OC)cc(OC)c(OC)c32)cc1OC (stereo unspecified): > 100 µM
O=[N+]([O-])c1cccc(C2ON2C2CCCCC2)c1 (stereo unspecified): 41.5 µM
Cc1ccc(S(=O)(=O)OCC23CCC(CC2)C2CC23)cc1 (stereo unspecified): > 100 µM

[Q] Value lookup for TGI; key = O=C(Cn1ccnc1[N+](=O)[O-])c1ccc(F)cc1
[A] > 100 µM

[Q] Value lookup for TGI; key = Fc1ccccc1C1CC(c2ccc3ccccc3c2)=Nc2ccccc2S1 (stereo unspecified)
[A] > 100 µM

[Q] Value lookup for TGI; key = S=c1cc(S)sc2c1c(=S)sc1nc3ccccn3c(=S)c12
[A] > 100 µM

[Q] Value lookup for TGI; key = NCCCNCCCCN(CCCN)/[N+]([O-])=N\O
[A] > 100 µM

[Q] Value lookup for TGI; key = CS(=O)(=O)N(N(CCCl)S(=O)(=O)c1ccccc1)S(C)(=O)=O
[A] > 100 µM

[Q] Value lookup for TGI; key = C=C(Br)N(CC)CC
[A] > 100 µM

* * *

# Test system: NCI-H23 lung
# test-method-notes: NCI tumour cell line growth inhibition, 48 h
# GI50 listing for each entry below

Some solved entries appear below for comparison.
Cn1ccnc1C(=O)/C=C/c1ccccc1: 3.76 µM
O=C(NCc1ccc(Cn2c(=O)sn(-c3ccccc3)c2=O)cc1)OCc1ccc2c(Br)cc(Br)c(O)c2n1: 1.4 µM
CN(CC(=O)N(Cc1ccc(C2CCCCC2)cc1)c1ccc(C(=O)O)c(O)c1)S(=O)(=O)c1c(F)c(F)c(F)c(F)c1F: 10.6 µM

[Q] Value lookup for GI50; key = COc1cc(O)c(C(=O)/C=C/c2ccc(O)cc2)c(O)c1[C@@H]1C[C@H](CCc2ccc(O)cc2)O[C@H](c2ccc(O)cc2)C1
[A] 3.14 µM

* * *

# Test system: 786-0 renal
# test-method-notes: NCI tumour cell line growth inhibition, 48 h
measure-name: GI50

COc1cc(Nc2ccnc(NCCCNc3ccnc4cc(Cl)ccc34)n2)cc(OC)c1: 1590 nM
COc1cc2c3c(n(CCCI)c(=O)c2cc1OC)-c1cc2c(cc1C3=O)OCO2: 1370 nM
CC(=O)O[C@]1(C(C)=O)CC[C@H]2[C@@H]3C=C(C)C4=CC(=O)CC[C@]4(C)[C@H]3CC[C@@]21C: > 80700 nM
CCC1CCc2nc3sc(C(=O)Nc4cccc(F)c4)c(N)c3cc2C1 (stereo not drawn): 701 nM
Cc1cc(N(CCNc2ccnc3cc(Cl)ccc23)Cc2ccco2)nc(Cl)n1: 1570 nM

[Q] Value lookup for GI50; key = CC[C@@H](C(=O)[C@@H](C)[C@@H](O)[C@H](C)[C@@H]1O[C@@H]([C@@H](CC)C(=O)N(CC)CC)CC[C@@H]1C)C1O[C@]2(C=CC(=O)[C@]3(CC[C@@](C)([C@H]4CC[C@](O)(CC)[C@H](C)O4)O3)O2)[C@H](C)C[C@@H]1C (stereo partly drawn)
[A] 3220 nM

[Q] Value lookup for GI50; key = Nc1nc(-c2ccccc2)nc(N)c1N=O
[A] 13200 nM

[Q] Value lookup for GI50; key = NC(=O)c1cc(-c2ccc(F)cc2)cc(-c2ccncc2)c1N
[A] > 25000 nM

* * *

# TGI listing for each entry below
# System: NCI-H522 lung
# test-method-notes: NCI tumour cell line growth inhibition, 48 h
State just the number; it will be interpreted in µM.

Some solved entries appear below for comparison.
COc1ccc(Cn2cc3c(c2-c2ccc(OC)cc2)CCc2cnoc2-3)cc1: 0.572
COc1cc(Nc2ccnc(NCCCNc3ccnc4cc(Cl)ccc34)n2)cc(OC)c1: 3.78
CSCCCNC(=O)c1csc(-c2csc(C(CNC(=O)OC(C)(C)C)CNC(=O)OC(C)(C)C)n2)n1: 94.5
O=[N+]([O-])c1c(Br)sc(Br)c1[N+](=O)[O-]: 1.95
Nc1nc(-c2ccccc2)nc(N)c1N=O: 7.27

[Q] # get_value(readout= TGI, system= NCI-H522 lung) for CN1c2ccccc2C(C)(C)C12C=Cc1cc(O)ccc1O2 (stereo not drawn)
[A] 24.9

[Q] # get_value(readout= TGI, system= NCI-H522 lung) for Cn1ccnc1C(=O)/C=C/c1ccccc1
[A] 14.9

[Q] # get_value(readout= TGI, system= NCI-H522 lung) for CN1CCC(CN2c3ccccc3Sc3ccccc32)CC1
[A] 28.3

[Q] # get_value(readout= TGI, system= NCI-H522 lung) for C[C@]1(CO)CCC[C@@]2(C)C1CC[C@H]1CC3C[C@]12CC[C@]3(C)O (stereo partly drawn)
[A] 31.1

[Q] # get_value(readout= TGI, system= NCI-H522 lung) for CCNC(=O)c1cc2c(-c3cc(C(C)(C)O)ccc3Oc3c(C)cc(F)cc3C)cn(C)c(=O)c2[nH]1
[A] 14.2

* * *

# Test system: UACC-257 melanoma
# test-method-notes: NCI tumour cell line growth inhibition, 48 h
measure-name: TGI (µM)
State just the number; it will be interpreted in µM.

Some solved entries appear below for comparison.
C[C@@H](CO)[C@@H]1CCC=C2CC[C@]3(C)[C@H](CC[C@@H]4[C@@]5(C)CCCNC(C)(C)[C@@H]5CC[C@]43C)[C@H]21: 7.08
CO/N=C(\C)COc1ccc2c(=O)c(-c3ccccc3)coc2c1: 97.3
CCNC(=O)c1cc2c(-c3cc(C(C)(C)O)ccc3Oc3c(C)cc(F)cc3C)cn(C)c(=O)c2[nH]1: 18.5
COC(=O)C1=C(C)NC(C)=C(C(=O)OC)C1/C=C(Cl)/C=C/c1ccccc1: 41
COc1cc2c(cc1C)NC(=O)/C2=C\c1cccc(Oc2ccccc2)c1: 52.3

[Q] # get_value(readout= TGI, system= UACC-257 melanoma) for COc1cc(O)c(C(=O)/C=C/c2ccc(O)cc2)c(O)c1[C@@H]1C[C@H](CCc2ccc(O)cc2)O[C@H](c2ccc(O)cc2)C1
[A] 20.2

[Q] # get_value(readout= TGI, system= UACC-257 melanoma) for COc1ccc(C(SCCO)(c2ccccc2)c2ccccc2)cc1
[A] 32.7

[Q] # get_value(readout= TGI, system= UACC-257 melanoma) for N#CSCC1CC(O)(c2ccccc2)CC(c2ccc(F)cc2)O1 (stereo unspecified)
[A] 11.9

* * *

# Tested on: RPMI-8226 leukemia
# test-method-notes: NCI tumour cell line growth inhibition, 48 h
measure-name: TGI

Some solved entries appear below for comparison.
COc1ccc(Nc2c3ccccc3nc3ccccc23)cc1: 4.66 µM
CCN1CCN(c2nc3ccc([N+](=O)[O-])cc3nc2C(=O)c2ccccc2)CC1: 30.9 µM
CCOC(=O)C(=Cc1ccc(Oc2ccccc2)cc1)C(=O)OCC: 6.89 µM

[Q] # get_value(readout= TGI, system= RPMI-8226 leukemia) for C/C(=C/C(=O)Nn1c(Cc2ccccc2)n[nH]c1=O)C(=O)O
[A] > 100 µM

[Q] # get_value(readout= TGI, system= RPMI-8226 leukemia) for N#C/C(=C\NC(=S)c1ccncc1)c1nc2ccccc2s1
[A] > 100 µM

[Q] # get_value(readout= TGI, system= RPMI-8226 leukemia) for O=C(/C=C/c1ccc(O)c(O)c1)c1cc(O)cc(O)c1
[A] > 100 µM

[Q] # get_value(readout= TGI, system= RPMI-8226 leukemia) for COc1cc2c3c(n(CCCI)c(=O)c2cc1OC)-c1cc2c(cc1C3=O)OCO2
[A] > 100 µM

[Q] # get_value(readout= TGI, system= RPMI-8226 leukemia) for N=c1c2c(-c3ccccc3)c[nH]c2ncn1N
[A] > 100 µM

[Q] # get_value(readout= TGI, system= RPMI-8226 leukemia) for CC1(CCCO)CCCCCCCCCC(C)(CCCO)C1=O (stereo unspecified)
[A] > 100 µM

[Q] # get_value(readout= TGI, system= RPMI-8226 leukemia) for Cn1ccnc1C(=O)/C=C/c1ccccc1
[A] 8.97 µM

[Q] # get_value(readout= TGI, system= RPMI-8226 leukemia) for COC(=O)/C=C/c1ccc2c(c1)CC1(C2)Cc2cc3c(cc2C1=O)CCC3 (stereo unspecified)
[A] > 100 µM

[Q] # get_value(readout= TGI, system= RPMI-8226 leukemia) for COc1cc(OC)c(/C=C/c2cnc3ccccc3n2)c(OC)c1
[A] > 10 µM

[Q] # get_value(readout= TGI, system= RPMI-8226 leukemia) for Nc1nc(-c2ccc(F)cc2)c(-c2ccc3ncccc3n2)s1
[A] > 25 µM

[Q] # get_value(readout= TGI, system= RPMI-8226 leukemia) for CCNC(=O)c1cc2c(-c3cc(C(C)(C)O)ccc3Oc3c(C)cc(F)cc3C)cn(C)c(=O)c2[nH]1
[A] 8.98 µM

[Q] # get_value(readout= TGI, system= RPMI-8226 leukemia) for CC(=O)c1ccc(NC(=O)C(=O)Nn2c(=S)[nH]c3ccccc3c2=O)cc1
[A] > 100 µM
